meta.source: ChEMBL document CHEMBL4382235

- TEST: AUC (0 to t) in Sprague-Dawley rat at 2 mg/kg, iv by LC-MS/MS analysis
- Format: ADME, organism-based
- TEST_CONTEXT: in vivo
PROPERTY_LABEL: AUC(0-t) (ng·h/mL)
Give the value in ng·h/mL but do not write ng·h/mL after it.

Prompt: Quickly give me recorded AUC(0-t) for Cc1cc(O)c(-c2ccc([C@@H](C)CN)cc2)c2c1[nH]c(=O)c1c(O)cccc12
Response: 564

---

- TEST: Cmax in Sprague-Dawley rat at 15 mg/kg, po by LC-MS/MS analysis
- Assay type: ADME, organism-based
- Set-up: dose 15 mg/kg, route oral
- TEST_CONTEXT: in vivo
PROPERTY_LABEL: Cmax (ng/mL)
Give the value in ng/mL but do not write ng/mL after it.

Prompt: Quickly give me recorded Cmax for Cc1cc(O)c(-c2ccc([C@@H](C)CN)cc2)c2c1[nH]c(=O)c1c(O)cccc12
Response: 251
